Cited source: patent US8604220B2

experiment: Cytotoxicity on THP1 cells; format: cell-based; conditions: human
Property label: pIC50
The value called pIC50 is obtained by taking minus log10 of the concentration in mol/L.

Prompt: # pIC50 lookup, item CCC(C)C(=O)O[C@@H]1[C@H]2C(C)=CC(=O)[C@@H](O)[C@]2(C)[C@H]2[C@@H](O)[C@H](O)[C@@]3(C)OC[C@@]24[C@@H]1OC(=O)[C@H](OC(=O)C(C)CC)[C@@H]34 (stereo partly shown)
Response: 7.48
